Assay: NCI Yeast Anticancer Drug Screen. Data for the sgs1 mgt1 strain (AID 161);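 further: 0% = growth of cultures given vehicle only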
Settings: S. cerevisiae sgs1 mgt1 strain, at 5.0 µM (retest, dose inferred, filed as 0.5), hits give high values
The panel holds about 79,000 compounds, 15% with a hit somewhere; the sample as a whole holds those more often.
Kindly state growth inhibition for each of the entries shown.
Numbers only, in %.

>  <compound>
O=C(COc1ccc(Br)cc1Br)N1N=C(c2ccc([N+](=O)[O-])o2)CC1(O)c1ccccc1 (centres undefined)

>  <measurement_unit>
%

>  <growth inhibition>
12

$$$$
>  <compound>
COC(=O)C1=C(C)NC(c2ccc(OC)cc2OC)C(C(=O)OC)=C1C (centres undefined)

>  <measurement_unit>
%

>  <growth inhibition>
1

$$$$
>  <compound>
COc1cc(-c2nn3c(=O)n(-c4ccc(Cl)cc4)c(=O)nc3s2)cc(OC)c1OC

>  <measurement_unit>
%

>  <growth inhibition>
1

$$$$
>  <compound>
CC(=O)Oc1ccc(/C=C/c2ccncc2)cc1

>  <measurement_unit>
%

>  <growth inhibition>
-65

$$$$
>  <compound>
CC(C)OC(=O)CCCCCC1CCCCC1

>  <measurement_unit>
%

>  <growth inhibition>
3

$$$$
>  <compound>
O=C(O)c1cc(Br)ccc1OCc1ccc(Cl)cc1

>  <measurement_unit>
%

>  <growth inhibition>
-7

$$$$

Each of the following entries comes with a recorded value; kindly state growth inhibition for each.
1. CC(=O)CCCOC(C)=O
2. Oc1[nH]c2ccccc2c1N=NC(=S)N1CCCC1
3. O=CNC(CCCC(=O)O)Cc1cc2ccccc2c2ccccc12 (centres undefined)
4. O=C(O)c1cc(-c2ccc3c(c2)Nc2ccccc2S3)nc2ccc(F)cc12
5. CCCCCOCC(=O)OC

(A)
1: 77; 2: 7; 3: 5; 4: 12; 5: -1

Each of the following entries comes with a recorded value; kindly state growth inhibition for each.
1. C/C=C(/CCC1NCCC2c3ccccc3NC12)[Si](C)(C)C (centres undefined)
2. CNC(=O)NN(C)C=O

(A)
[-2, 2]

* * *

Assay: NCI Yeast Anticancer Drug Screen. Data for the rad50 strain (AID 155);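 further: 0% = growth of vehicle-only cultures of the same strain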
Settings: S. cerevisiae rad50 strain growth inhibition; at 5.0 µM (retest, dose inferred, filed as 0.5)
This is part of a sample that, as a whole, favours compounds with a hit. Of some 79,000 tested, about 15% had one in any assay. Activity calls are given as the source filed them. Rule as the data show it: active = growth inhibition above about 70%; inactive = the rest.
Return exactly one item of active, inactive

>  <molecule>
O=C(c1ccc(Br)cc1)C1OC12C(=O)Nc1ccccc12 (configuration not stated)

>  <qualitative_label>
inactive

$$$$
>  <molecule>
CCOC(CN(C)C(=O)Nc1ccc(Cl)c(Cl)c1)OCC

>  <qualitative_label>
inactive

$$$$
>  <molecule>
Cc1ccc2cc3ccccc3c(-c3ccccc3)c2c1

>  <qualitative_label>
inactive

$$$$
>  <molecule>
O=C1C(Cl)=C(Nc2ccc(S(=O)(=O)O)cc2)C(=O)c2ccccc21

>  <qualitative_label>
inactive

$$$$
>  <molecule>
CNc1c(C(=O)Nc2ccccc2)c(=O)n(C)c(=O)n1C

>  <qualitative_label>
active

$$$$

(Q) Recorded test outcome, item `O=C1C=CC(=NN=C(c2ccccc2)c2ccccc2)C=C1`
(A) inactive

(Q) What would you report for Cc1ccc(OCC2CO2)c(Br)c1 (configuration not stated) ?
(A) inactive

(Q) What would you report for `CCCC/C=C\CCCCCCCCCC1=C(O)C(=O)C=C(OC)C1=O` ?
(A) inactive

(Q) What would you report for O=C(O)C(Cc1ccccc1)N=Cc1ccc(O)cc1 (configuration not stated) ?
(A) active

(Q) What would you report for O=C(CC1CCCC(CC(=O)c2ccccc2)N1CCc1ccccc1)c1ccccc1 (configuration not stated) ?
(A) inactive

(Q) What would you report for `CC[N+](CC)(CC)Cc1ccc(C[N+](CC)(CC)CC)cc1` ?
(A) inactive

(Q) What would you report for `COc1ccc2c(c1OC)C1=C(C2=O)c2cc3c(cc2CCN1)OCO3` ?
(A) inactive

* * *

Test: NCI Yeast Anticancer Drug Screen. Data for the bub3 strain (AID 167)
Settings: S. cerevisiae bub3 mutant strain, at 50.0 µM
The panel holds about 79,000 compounds, 15% with a hit somewhere; the sample as a whole holds those more often. The source made the active and inactive calls. Rule as the data show it: active = growth inhibition above about 70%; inactive = the rest.
Return exactly one item of active, inactive

>  <compound>
OCCC(CCN1CCOCC1)(c1ccccc1)C1(O)CCCC1 (configuration not stated)

>  <qualitative_label>
inactive

$$$$

Consider the additional compound presented here.
(Q) Recorded test outcome, item `CC1=C(C(=O)Nc2ccccc2C)C(c2ccccc2F)C(C(=O)Nc2ccccc2C)=C(C)N1`
(A) inactive

* * *

Test: NCI Yeast Anticancer Drug Screen. Data for the bub3 strain (AID 167)
Details: S. cerevisiae bub3 mutant strain, at 50.0 µM (retest, dose inferred, filed as 5.0)
Compounds without any hit were thinned out: in the full panel of roughly 79,000, 15% have a hit. Active and inactive are the calls of the source. No stated cut-off is given here; in the data, active means growth inhibition above about 70%; inactive means the rest.
Return exactly one item of Y = active, N = inactive

>  <molecule>
Oc1ccc2c(c1)OCC1c3ccccc3OC21 (configuration not stated)

>  <qualitative_label>
Y

$$$$
>  <molecule>
COc1ccc2c(c1)[n+]([O-])c(S(=O)(=O)c1ccc(C)cc1)c(N)[n+]2[O-]

>  <qualitative_label>
Y

$$$$
>  <molecule>
CCOC(=O)C1CN(CCCCCCN2CC(C(=O)OCC)C(=O)C2=O)C(=O)C1=O (configuration not stated)

>  <qualitative_label>
N

$$$$

(Q) Recorded test outcome, item `CCCCCCCC/C=C\CCCCCCCC(=O)OCCCCC`
(A) N

(Q) What would you report for OC12C3C4CC5C(C4[C@@H]1Br)C2[C@@](O)(c1c(F)c(F)c(F)c(F)c1F)C53 (some centres not stated) ?
(A) N

(Q) What would you report for `O=C(O)CNc1ccc2c(c1)Cc1cc(Br)ccc1-2` ?
(A) Y

(Q) What would you report for `CCOC(=O)Cc1csc(/C=C/c2ccc(OC)c(OC)c2)n1` ?
(A) N

(Q) What would you report for O=[N+]([O-])CC(O)c1ccccc1Cl (configuration not stated) ?
(A) Y

(Q) What would you report for CC1CN(CC2CCCCCCCCCCC2=O)CC(C)O1 (configuration not stated) ?
(A) Y

(Q) What would you report for `O=S(=O)(N/N=C/c1ccc(Cl)cc1Cl)c1ccccc1` ?
(A) N

(Q) What would you report for `Clc1ccc(Cl)c(SCCCN2CCNCC2)c1` ?
(A) N

(Q) What would you report for `CCCCCC/C=C\C=O` ?
(A) N

* * *

Experiment: NCI Yeast Anticancer Drug Screen. Data for the mlh1 rad18 strain (AID 175)
Details: S. cerevisiae mlh1 rad18 strain growth inhibition; at 5.0 µM (retest, dose inferred, filed as 0.5); hits give high values
This is part of a sample that, as a whole, favours compounds with a hit. Of some 79,000 tested, about 15% had one in any assay.
Kindly state growth inhibition for each of the entries shown.
Give bare numbers, in %.

Examples from the recorded data:
>  <molecule>
C1Cc2c3c4c(c5c2C(C1)CCC5)CCCC4CCC3

>  <measurement_unit>
%

>  <result>
-1

$$$$
>  <molecule>
ONC1=Nc2ccccc2OCc2cc(Br)c(Br)cc2COc2ccccc2N=C1NO

>  <measurement_unit>
%

>  <result>
31

$$$$
>  <molecule>
C1=CN2C(c3ccccc3)=NN(c3ccccc3)[C@@H]2c2ccccc21

>  <measurement_unit>
%

>  <result>
2

$$$$

Each of the following entries comes with a recorded value; kindly state growth inhibition for each.
1. CC(C)C(=O)c1ccc([N+](=O)[O-])o1
2. O=c1c2ccccc2ncn1Cc1ccccc1[N+](=O)[O-]
3. CCC1C(c2ccccc2O)c2cc3c(cc2OC1N1CCOCC1)OCO3 (stereo unspecified)
4. COc1ccc(C2=C(Cl)C(=O)N(c3ccc(Cl)cc3)C(=O)C2(Cl)Cl)cc1
5. O/N=C(/C[N+]12CN3CN(CN(C3)C1)C2)c1ccc(I)cc1
6. Clc1ccc(OCCC(Cn2ccnc2)c2ccc(Cl)cc2Cl)c(Cl)c1 (stereo unspecified)

(A)
1: 6; 2: 0; 3: -13; 4: 9; 5: 12; 6: 90

Each of the following entries comes with a recorded value; kindly state growth inhibition for each.
1. CCc1ccc2c(-c3ccccc3)c3ccccc3c(-c3ccccc3)c2c1
2. OC1c2ccccc2C2(O)C1C(c1ccccc1)C(c1ccccc1)C2(O)c1ccccc1 (stereo unspecified)

(A)
-1
30

* * *

Experiment: NCI Yeast Anticancer Drug Screen. Data for the rad50 strain (AID 155);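 further: 0% = growth of vehicle-only cultures of the same strain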
Details: S. cerevisiae rad50 strain growth inhibition; at 5.0 µM (retest, dose inferred, filed as 0.5); hits give high values
Compounds without any hit were thinned out: in the full panel of roughly 79,000, 15% have a hit.
recorded_endpoint: growth inhibition (%)
Numbers only, in %.

Examples from the recorded data:
>  <compound>
O=C(Nc1cccc2ccccc12)OCCCCCCl

>  <result>
-2

$$$$
>  <compound>
CCN(CC)CCNc1c(O)cc(C)c2sc3ccccc3c(=O)c12

>  <result>
18

$$$$
>  <compound>
Cc1c(N)nc(C(CC(N)=O)NCC(N)C(N)=O)nc1C(=O)NC(C(=O)NC(C)C(O)C(C)C(=O)NC(C(=O)NCCc1nc(-c2nc(C(=O)NCCCNC(C)c3ccccc3)cs2)cs1)C(C)O)C(OC1OC(CO)C(O)C(O)C1OC1OC(CO)C(O)C(OC(N)=O)C1O)c1cnc[nH]1 (centres undefined)

>  <result>
97

$$$$
>  <compound>
CCCNC(=O)c1cc2ccccc2cc1C(=O)OC

>  <result>
59

$$$$
>  <compound>
S=C(S)NCCN1CCNCC1

>  <result>
9

$$$$
>  <compound>
O=C1/C(=C/c2ccc(Cl)c(Cl)c2)CN(C(=O)CCN2CCOCC2)C/C1=C\c1ccc(Cl)c(Cl)c1

>  <result>
99

$$$$

Each of the following entries comes with a recorded value; kindly state growth inhibition for each.
1. COc1cc(/C=C/C2=C(C)C(=O)CC(c3cc(OC)c(OC)c(OC)c3)C2C)cc(OC)c1OC (centres undefined)
2. Oc1ccc(/C=N/NC(=S)NC2CC3CC2C2C=CCC32)c(O)c1 (centres undefined)
3. CCCCCCCCCCn1cc[nH]c1=S

(A)
1: 2; 2: 46; 3: 47
